# assayTarget: PAR2 (HT-29 cells) (Homo sapiens)
# Construct: host or cells: HT-29
# Sequence (P55085 26-397): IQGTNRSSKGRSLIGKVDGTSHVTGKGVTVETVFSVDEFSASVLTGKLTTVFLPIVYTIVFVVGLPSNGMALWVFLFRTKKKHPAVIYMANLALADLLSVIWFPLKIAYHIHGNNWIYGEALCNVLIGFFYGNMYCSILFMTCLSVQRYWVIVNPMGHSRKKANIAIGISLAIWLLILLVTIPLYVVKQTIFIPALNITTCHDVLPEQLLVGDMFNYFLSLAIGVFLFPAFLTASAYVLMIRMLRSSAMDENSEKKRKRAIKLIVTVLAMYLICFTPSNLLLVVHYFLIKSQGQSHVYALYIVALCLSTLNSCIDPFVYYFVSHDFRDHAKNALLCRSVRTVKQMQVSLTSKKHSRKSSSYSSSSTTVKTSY
# experimentDescription: Ca FLIPR TETRA assay, ANTAGONIST mode, activator 8 μM SLIGKV
# Type: cell-based
# experimentalConditions: HT-29 cells, activator 8 μM SLIGKV; maximal antagonist concentration per Method (A: 0.1, 1 or 2 μM; B: 50 μM)
readoutLabel: pIC50
Scale explanation: pIC50 corresponds to minus log10 of a concentration expressed in moles per litre.

Sample answers from the record:
>>> df
                                   compound  datavalue
0  CNS(=O)(=O)CCC(=O)N1CCN(C(=O)c2cc3nc(C4CCC(F)(F)CC4)cc(C(C)(C)C)c3o2)C(C)(C)C1 [Example I-226]       7.12
1  CO[C@H](C)C(=O)N1CCN(C(=O)c2cc3nc(-c4ccc(F)cc4)cc(C4(C)CC4)c3o2)C(C)(C)C1 [Example I-29]       7.64
2  CC(C)c1cc(-c2ccc(F)cc2)nc2cc(C(=O)N3CCN(C(=O)[C@@H](C)O)C[C@H]3C)oc12 [Example I-98]       5.28

Query: Look up pIC50 for this compound: CC(C)c1cc(-c2ccc(F)cc2)nc2cc(C(=O)N3CCN(C(=O)c4ccn[nH]4)CC3(C)C)oc12 [Example I-65]
Result: 8.00

Query: Please give the measured pIC50 for this compound: C[C@H]1CN(C(=O)c2cc3nc(-c4ccc(F)cc4)cc(C4(C)CC4)c3o2)CCN1C(=O)C1(C#N)CC1 [Example I-119]
Result: 6.21

Query: Bench note: what pIC50 did CCC(C)C(=O)N1CCN(C(=O)c2cc3nc(-c4ccc(F)cc4)cc(C4(C)CC4)c3o2)C(C)(C)C1 (centres unmarked) [Example I-44] show?
Result: 8.54

Query: pIC50 for CC(C)c1cc(-c2ccc(F)cc2)nc2cc(C(=O)N3CCN(C(=O)C(O)c4ccc(F)cc4)[C@@H](C)C3)oc12 (some centres unmarked) [Example I-83] ?
Result: 8.35

Query: Which pIC50 is reported for this compound? CC(C)(C)c1cc(-c2ccc(F)cc2)nc2cc(C(=O)N3CCN(C(=O)CCS(C)(=O)=O)CC3(C)C)oc12 [Example I-213]
Result: 8.10

Query: Give the measured pIC50 of CC(C)c1nc(-c2ccc(F)cc2)nc2cc(C(=O)N3CCN(C(=O)[C@H](O)CC(C)(C)C)CC3(C)C)oc12 [Example I-126] .
Result: 6.96

Query: Give the measured pIC50 of CC1(c2cc(-c3ccc(F)cc3)nc3cc(C(=O)N4CCN(C(=O)C5CC5)CC4(C)C)oc23)CC1 [Example I-49] .
Result: 8.23

Query: Record request: pIC50 value, item CC1(C)CCC(c2cc(C(C)(C)C)c3oc(C(=O)N4CCN(c5ccn[nH]5)C(=O)C4(C)C)cc3n2)CC1 [Example I-283]
Result: 7.74

Query: Which value of pIC50 has been reported for CC(C)c1cc(-c2ccc(F)cc2)nc2cc(C(=O)N3CCN(S(=O)(=O)c4cn[nH]c4)CC3(C)C)oc12 [Example I-147] in the records?
Result: 7.70

Query: Item Cc1ccc(-c2cc(C(C)(C)C)c3oc(C(=O)N4CCNC(=O)C4(C)C)cc3n2)cc1 [Example I-165] has what recorded pIC50?
Result: 7.80

Query: Field request: pIC50 | item: Cc1cncnc1N1CCN(C(=O)c2cc3nc(-c4ccc(Cl)cc4)cc(C(C)(C)C)c3o2)C(C)(C)C1 [Example I-265]
Result: 8.24
